# Tested on: PPARg DBDmut:RXRa IVT, anti-PPARg (DBD mutation: PPARg1 K132A/R137A, NR concentration 270 nM, RXRa partner concentration 90 nM)
# assay-explanation: PBM binding z-score (relative to random genomic background probes); higher = stronger binding; sequences stand for … in GC…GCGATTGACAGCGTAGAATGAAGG

[
  {
    "residues": "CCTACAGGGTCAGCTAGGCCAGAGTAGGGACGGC",
    "PBM binding z-score": -0.42
  },
  {
    "residues": "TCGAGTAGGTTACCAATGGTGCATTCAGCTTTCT",
    "PBM binding z-score": -0.362
  },
  {
    "residues": "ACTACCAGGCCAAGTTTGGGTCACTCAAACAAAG",
    "PBM binding z-score": 0.0556
  },
  {
    "residues": "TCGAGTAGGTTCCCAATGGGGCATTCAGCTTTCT",
    "PBM binding z-score": -1.28
  },
  {
    "residues": "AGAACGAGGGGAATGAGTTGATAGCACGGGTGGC",
    "PBM binding z-score": 0.108
  },
  {
    "residues": "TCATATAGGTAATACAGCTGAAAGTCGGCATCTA",
    "PBM binding z-score": 0.896
  },
  {
    "residues": "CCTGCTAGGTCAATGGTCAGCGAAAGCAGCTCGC",
    "PBM binding z-score": 0.555
  },
  {
    "residues": "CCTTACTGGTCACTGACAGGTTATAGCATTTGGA",
    "PBM binding z-score": 0.395
  },
  {
    "residues": "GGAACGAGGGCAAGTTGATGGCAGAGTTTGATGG",
    "PBM binding z-score": -0.155
  },
  {
    "residues": "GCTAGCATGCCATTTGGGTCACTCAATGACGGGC",
    "PBM binding z-score": 0.0302
  },
  {
    "residues": "GCTATTAGTCGAAAGGGCAACCGAATGATTCTCG",
    "PBM binding z-score": 0.65
  },
  {
    "residues": "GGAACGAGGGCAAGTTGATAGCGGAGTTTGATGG",
    "PBM binding z-score": -0.0734
  }
]
